- system tested: T1, soluble human GPNMB (recombinant extracellular domain) (human, UniProt Q14956 23-498)
- T1 construct: also called huGPNMB; recombinant human GPNMB extracellular domain; not shown: C-terminal polyhistidine or Avi-His tag
- T1 sequence: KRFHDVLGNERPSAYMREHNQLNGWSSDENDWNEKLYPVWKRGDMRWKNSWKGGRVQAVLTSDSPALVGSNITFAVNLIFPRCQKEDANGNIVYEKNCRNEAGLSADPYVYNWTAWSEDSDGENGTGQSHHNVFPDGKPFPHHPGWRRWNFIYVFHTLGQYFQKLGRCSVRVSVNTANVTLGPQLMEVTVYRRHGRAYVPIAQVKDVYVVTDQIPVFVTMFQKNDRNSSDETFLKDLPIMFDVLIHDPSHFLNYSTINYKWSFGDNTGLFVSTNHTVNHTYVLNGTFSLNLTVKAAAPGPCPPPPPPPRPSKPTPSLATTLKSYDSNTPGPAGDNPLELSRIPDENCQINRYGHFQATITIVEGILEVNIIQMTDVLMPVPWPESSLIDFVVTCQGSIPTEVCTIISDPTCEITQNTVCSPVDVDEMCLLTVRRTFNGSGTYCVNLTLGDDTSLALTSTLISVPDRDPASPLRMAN
- assay info: SPR Carterra, Ab immobilized
recorded endpoint: pKd
Scale explanation: pKd corresponds to minus log10 of a concentration expressed in moles per litre.

Examples from the recorded data:
| binder | pKd |
| --- | --- |
| anti-GPNMB antibody GPN-25 (antibody, human IgG1, V domains shown, chimeric) VH: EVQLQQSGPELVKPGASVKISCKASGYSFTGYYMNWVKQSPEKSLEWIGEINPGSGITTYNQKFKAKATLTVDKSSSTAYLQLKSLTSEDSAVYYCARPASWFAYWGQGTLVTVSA VL: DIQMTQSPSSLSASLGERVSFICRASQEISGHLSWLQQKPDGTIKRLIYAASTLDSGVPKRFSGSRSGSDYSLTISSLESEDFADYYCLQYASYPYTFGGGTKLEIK | 7.94 |
| anti-GPNMB antibody GPN-31 (antibody, human IgG1, V domains shown, chimeric) VH: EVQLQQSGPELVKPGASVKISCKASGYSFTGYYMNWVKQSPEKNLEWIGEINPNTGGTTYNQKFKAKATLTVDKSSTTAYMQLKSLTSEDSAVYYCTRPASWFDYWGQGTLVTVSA VL: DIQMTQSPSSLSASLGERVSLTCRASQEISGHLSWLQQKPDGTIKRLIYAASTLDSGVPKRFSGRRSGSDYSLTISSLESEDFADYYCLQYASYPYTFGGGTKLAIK | 7.93 |
| anti-GPNMB antibody GPN-26 (antibody, human IgG1, V domains shown, chimeric) VH: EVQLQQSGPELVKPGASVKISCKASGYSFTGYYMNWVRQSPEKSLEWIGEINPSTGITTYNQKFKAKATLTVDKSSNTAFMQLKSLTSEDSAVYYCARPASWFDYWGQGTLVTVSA VL: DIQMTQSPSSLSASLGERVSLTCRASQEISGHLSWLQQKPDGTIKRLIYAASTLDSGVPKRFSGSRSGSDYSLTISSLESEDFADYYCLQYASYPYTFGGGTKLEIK | 7.95 |

Now for a further binder.
# input What value of measured pKd is listed for anti-GPNMB antibody GPN-42 (antibody, human IgG1, V domains shown, chimeric) VH: DVKLVESGEDLVKPGGSLKLSCAASGFTFSSYAMSWVRQTPEKRLEWVAYISSGGDYIYYADTVKGRFTISRDNARNTLYLQMSSLKSEDTAMYYCTRDRYYDYDVRDYYTMDYWGQGTSVTVSS VL: DVMMTQTPLSLPVSLGDQASISCRSSQSLVHSNGNTYLHWFLQKPGQSPKLLIFRVSNRFSGVPDRFSGRGSGTDFTLKISRVEAEDLGVYFCSQTTHVPRTFGGGTTLEIK ?
# output 8.21
